Value source: patent US20230203146A1

- tested-target: T1, recombinant human Ang2-FLD (human, UniProt O15123 275-496, limits assumed)
- T1 construct: domain: FLD; not used
- T1 sequence (looked up): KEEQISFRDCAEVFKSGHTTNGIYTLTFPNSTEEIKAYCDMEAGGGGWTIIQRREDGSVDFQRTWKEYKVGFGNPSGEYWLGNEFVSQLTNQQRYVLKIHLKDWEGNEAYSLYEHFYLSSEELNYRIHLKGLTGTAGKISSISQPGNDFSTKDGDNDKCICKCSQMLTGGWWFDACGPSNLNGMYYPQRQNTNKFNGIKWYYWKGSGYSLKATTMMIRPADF
- run-description: SPR (Biacore T100), binder on CM5 chip, Ang2-FLD as analyte
measured-parameter: kon (M⁻¹ s⁻¹)
Answers are plain numbers, in M⁻¹ s⁻¹.

The examples below pair each entry with its known result.
{"columns": ["binder", "result-value"],
 "data": [
  ["VHH 7G08 (VHH, also called 007G08; not shown: C-terminal c-myc tag and His6 tag) VHH: EVQLVESGGGLVQPGGSLRLSCAASGFALDYYAIGWFRQVPGKEREGVSCISSSDGITYYVDSVKGRFTISRDNAKNTVYLQMNSLKPEDTAVYYCATDSGGYIDYDCMGLGYDYWGQGTQVTVSS", "1e+06"],
  ["VHH 1D01 (VHH, also called 001D01; not shown: C-terminal c-myc tag and His6 tag) VHH: EVQLVESGGGLVQAGGSLRLSCAASGFTFDDYALGWFRQAAGKEREGVSCIRCSDGSTYYADSVKGRFTISSDNAKNTVYLQMNSLKPEDTAVYYCAASIVPRSKLEPYEYDAWGQGTQVTVSS", "7.7e+06"],
  ["VHH 13A02 (VHH, also called 013A02; not shown: C-terminal c-myc tag and His6 tag) VHH: EVQLVESGGGLVQAGGSLRLSCAASGGTFSSYSMGWFRQAPGKEREFIAAINWNGDSTYYEDSVKGRFTVSRDNAKNTVYLQMNSLKPEDTAVYYCAATGWGRAYEQAYEYDVWGQGTQVTVSS", "9.2e+06"],
  ["VHH 28D10 (VHH, also called 028D10; not shown: C-terminal c-myc tag and His6 tag) VHH: EVQLVESGGGLVQAGGSLRLSCAASGFTLDDYAIGWFRQAPGKEREGVSCIRDSDGSTYYADSVKGRFTISSDNDKNTVYLQMNSLKPEDTAVYYCAAVPAGRLRFGEQWYPLYEYDAWGQGTQVTVSS", "4.9e+06"],
  ["VHH 10H02 (VHH, also called 010H02; not shown: C-terminal c-myc tag and His6 tag) VHH: EVQLVESGGGSVQAGGSLRLSCAASGFTFDDYAIGWFRQAPGKEREGVSCISSSDGSTNYADSVKGRFTISSDTAKNTVYLQMNSLKPEDTAVYYCTAVPATRRTPQMVDANMCWLAEYEYDYWGQGTQVTVSS", "5.7e+06"],
  ["VHH 24B05 (VHH, also called 024B05; not shown: C-terminal c-myc tag and His6 tag) VHH: EVQLVESGGGLVQPGGSLRLSCAASGFTLDYYAIGWFRQAPGKEWEGVSCISSSDGSTYYADSVKGRFTISRDNAKNTVYLQMNSLKPEDTAVYYCATDSIVCGSYYGMDYWGKGTQVTVSS", "2.6e+06"]
]}

As a next step, examine the binder that follows.
Query: Give a short answer stating reported kon for VHH 11B07 (VHH, also called 011B07; not shown: C-terminal c-myc tag and His6 tag) VHH: EVQLVESGGGLVQVGDSLRLSCAASGRTFSTYLMVGWFRQAPGKEREFAAGIWSSGDTAYADSVRGRFTISRDNAKNTVYLQMNSLKTEDTAVYYCAGSYDGNYYIPGFYKDWGQGTQVTVSS .
Response: 9.2e+06
